method: total protein half-life in vivo (active degradation + dilution); higher = more stable protein
details: wild type E. coli NCM3722; growth: C-lim chemostat; doubling time 6 h

{"sequence_content": "MKKYLALALIAPLLISCSTTKKGDTYNEAWVKDTNGFDILMGQFAHNIENIWGFKEVVIAGPKDYVKYTDQYQTRSHINFDDGTITIETIAGTEPAAHLRRAIIKTLLMGDDPSSVDLYSDVDDITISKEPFLYGQVVDNTGQPIRWEGRASNFADYLLKNRLKSRSNGLRIIYSVTINMVPNHLDKRAHKYLGMVRQASRKYGVDESLILAIMQTESSFNPYAVSRSDALGLMQVVQHTAGKDVFRSQGKSGTPSRSFLFDPASNIDTGTAYLAMLNNVYLGGIDNPTSRRYAVITAYNGGAGSVLRVFSNDKIQAANIINTMTPGDVYQTLTTRHPSAESRRYLYKVNTAQKSYRRR [P0C066]", "total protein half-life in vivo": "5.3 h"}
{"sequence_content": "MIYPDEAMLYAPVEWHDCSEGFEDIRYEKSTDGIAKITINRPQVRNAFRPLTVKEMIQALADARYDDNIGVIILTGAGDKAFCSGGDQKVRGDYGGYKDDSGVHHLNVLDFQRQIRTCPKPVVAMVAGYSIGGGHVLHMMCDLTIAADNAIFGQTGPKVGSFDGGWGASYMARIVGQKKAREIWFLCRQYDAKQALDMGLVNTVVPLADLEKETVRWCREMLQNSPMALRCLKAALNADCDGQAGLQELAGNATMLFYMTEEGQEGRNAFNQKRQPDFSKFKRNP [P0ABU0]", "total protein half-life in vivo": "5.55 h"}

###

method: total protein half-life in vivo (active degradation + dilution); higher = more stable protein
details: wild type E. coli NCM3722; growth: C-lim chemostat; doubling time 12 h

{"sequence_content": "MSVIKMTDLDLAGKRVFIRADLNVPVKDGKVTSDARIRASLPTIELALKQGAKVMVTSHLGRPTEGEYNEEFSLLPVVNYLKDKLSNPVRLVKDYLDGVDVAEGELVVLENVRFNKGEKKDDETLSKKYAALCDVFVMDAFGTAHRAQASTHGIGKFADVACAGPLLAAELDALGKALKEPARPMVAIVGGSKVSTKLTVLDSLSKIADQLIVGGGIANTFIAAQGHDVGKSLYEADLVDEAKRLLTTCNIPVPSDVRVATEFSETAPATLKSVNDVKADEQILDIGDASAQELAEILKNAKTILWNGPVGVFEFPNFRKGTEIVANAIADSEAFSIAGGGDTLAAIDLFGIADKISYISTGGGAFLEFVEGKVLPAVAMLEERAKK [P0A799]", "total protein half-life in vivo, h": 12.8}
{"sequence_content": "MKILLAALTSSFMLVGCTPRIEVAAPKEPITINMNVKIEHEIIIKADKDVEELLETRSDLF", "total protein half-life in vivo, h": 12}
{"sequence_content": "MYERYAGLIFDMDGTILDTEPTHRKAWREVLGHYGLQYDIQAMIALNGSPTWRIAQAIIELNQADLDPHALAREKTEAVRSMLLDSVEPLPLVDVVKSWHGRRPMAVGTGSESAIAEALLAHLGLRHYFDAVVAADHVKHHKPAPDTFLLCAQRMGVQPTQCVVFEDADFGIQAARAAGMDAVDVRLL", "total protein half-life in vivo, h": 6.18}
{"sequence_content": "MKKYLALALIAPLLISCSTTKKGDTYNEAWVKDTNGFDILMGQFAHNIENIWGFKEVVIAGPKDYVKYTDQYQTRSHINFDDGTITIETIAGTEPAAHLRRAIIKTLLMGDDPSSVDLYSDVDDITISKEPFLYGQVVDNTGQPIRWEGRASNFADYLLKNRLKSRSNGLRIIYSVTINMVPNHLDKRAHKYLGMVRQASRKYGVDESLILAIMQTESSFNPYAVSRSDALGLMQVVQHTAGKDVFRSQGKSGTPSRSFLFDPASNIDTGTAYLAMLNNVYLGGIDNPTSRRYAVITAYNGGAGSVLRVFSNDKIQAANIINTMTPGDVYQTLTTRHPSAESRRYLYKVNTAQKSYRRR [P0C066]", "total protein half-life in vivo, h": 9.66}
{"sequence_content": "MMLSKKNSETLENFSEKLEVEGRSLWQDARRRFMHNRAAVASLIVLVLIALFVILAPMLSQFAYDDTDWAMMSSAPDMESGHYFGTDSSGRDLLVRVAIGGRISLMVGVAAALVAVVVGTLYGSLSGYLGGKVDSVMMRLLEILNSFPFMFFVILLVTFFGQNILLIFVAIGMVSWLDMARIVRGQTLSLKRKEFIEAAQVGGVSTSGIVIRHIVPNVLGVVVVYASLLVPSMILFESFLSFLGLGTQEPLSSWGALLSDGANSMEVSPWLLLFPAGFLVVTLFCFNFIGDGLRDALDPKDR [P0AFH6]", "total protein half-life in vivo, h": 10.8}
{"sequence_content": "MTKQPPIAKADLQKTQGNRAPAAVKNSDVISFINQPSMKEQLAAALPRHMTAERMIRIATTEIRKVPALGNCDTMSFVSAIVQCSQLGLEPGSALGHAYLLPFGNKNEKSGKKNVQLIIGYRGMIDLARRSGQIASLSARVVREGDEFSFEFGLDEKLIHRPGENEDAPVTHVYAVARLKDGGTQFEVMTRKQIELVRSLSKAGNNGPWVTHWEEMAKKTAIRRLFKYLPVSIEIQRAVSMDEKEPLTIDPADSSVLTGEYSVIDNSEE", "total protein half-life in vivo, h": 7.28}
{"sequence_content": "MKRLRNKMTTEELAECLGVAKQTVNRWIREKGWKTEKFPGVKGGRARLILVDTQVCEFIQNTPAFHNTPMLMEAEERIAEYAPGARAPAYRQIINAIDNMTDIEQEKVAQFLSREGIRNFLARLDIDESA", "total protein half-life in vivo, h": 7.65}
